Hello, the source for this data is PubChem BioAssay AID588342, in case you need it.

- targetOrSystem: Luciferin 4-monooxygenase (Photinus pyralis) (UniProt P08659)
- Sequence (P08659 whole entry, looked up): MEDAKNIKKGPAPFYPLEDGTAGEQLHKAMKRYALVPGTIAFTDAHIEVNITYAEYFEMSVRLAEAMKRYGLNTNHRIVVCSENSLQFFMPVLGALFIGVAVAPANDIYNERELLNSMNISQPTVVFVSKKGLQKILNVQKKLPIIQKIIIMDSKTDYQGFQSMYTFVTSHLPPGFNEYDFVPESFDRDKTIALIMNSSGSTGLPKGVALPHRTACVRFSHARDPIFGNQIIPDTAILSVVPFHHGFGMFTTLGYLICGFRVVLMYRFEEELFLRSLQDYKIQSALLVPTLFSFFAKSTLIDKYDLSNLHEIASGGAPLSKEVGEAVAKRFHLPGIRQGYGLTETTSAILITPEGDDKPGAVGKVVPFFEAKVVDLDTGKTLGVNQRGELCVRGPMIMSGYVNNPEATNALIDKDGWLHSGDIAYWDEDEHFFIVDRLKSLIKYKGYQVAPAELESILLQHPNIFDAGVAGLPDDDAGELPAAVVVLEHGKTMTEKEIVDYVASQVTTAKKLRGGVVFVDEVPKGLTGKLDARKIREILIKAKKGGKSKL
- testDetails: qHTS profiling assay for firefly luciferase inhibitor/activator using purifed enzyme and Km concentrations of substrates (counterscreen for miR-21 project); note: nearly all actives have a fitted effect of over 55% in size
- measurementParameters: purified FLuc, luminescence inhibition; series mostly up to 57.5 µM
- Text: MLPCN Grant: 1 R21 NS059478-01 (miR-21 grant) Assay Provider: NCGC NCGC Assay Overview: Firefly (Photinus pyralis) luciferase is one of the most commonly used transcriptional reporters for a number of reasons. […] Although light produced in a bioluminescence reaction is of lower intensity than that produced during fluorescence emission, this is offset by little to no background light inherent to luminescent assays. […]
Out of some 360,000 compounds screened, about 25,000 (6.9%) were called active. About 9% were inconclusive and are not listed. Calls come from the whole dose curve; as a rule, active = well fitted inhibition curve with a large enough effect; inconclusive = small, poorly fitted or top-dose-only effect; inactive = flat fitted curve, though single readings scatter. What follows is part of a selection rich in actives, with near analogues and random picks from the rest.
# output must be one of active, inactive

The examples below pair each entry with its known result.
O=C(c1cccc(Br)c1)N1CCN(C2=NS(=O)(=O)c3ccccc32)CC1 = inactive
Cc1noc(C)c1COc1ccc2ccc(=O)oc2c1 = inactive
Cc1occc1-c1nnc(SCC(=O)NC2CCCCC2)o1 = inactive
COCCN(Cc1ccco1)C(=O)Cn1ncc2c([nH]c3ccccc32)c1=O = inactive

Next item in the queue.
Incoming: How did this test come out for `O=C(N/N=C/c1cccc(OC(=O)c2ccc([N+](=O)[O-])cc2)c1)c1cccnc1` ?
Outgoing: inactive

* * *

- targetOrSystem: Luciferin 4-monooxygenase (Photinus pyralis) (UniProt P08659)
- testDetails: qHTS profiling assay for firefly luciferase inhibitor/activator using purifed enzyme and Km concentrations of substrates (counterscreen for miR-21 project); note: nearly all actives have a fitted effect of over 55% in size
- measurementParameters: purified FLuc, luminescence inhibition; series mostly up to 57.5 µM
The whole screen tested about 360,000 compounds, of which about 25,000 (6.9%) were called active. Another 9% or so got no clear call; they are omitted. Calls follow the shape of the dose curve; as a rule, active = well fitted inhibition curve with a large enough effect; inconclusive = small, poorly fitted or top-dose-only effect; inactive = flat fitted curve, though single readings scatter. The sample as a whole holds a higher share of actives than the screen did.
# output must be one of true (1) (active), false (0) (inactive)

The examples below pair each entry with its known result.
O=C(NCCC1=CCCCC1)C1CCN(Cc2cnn(-c3ccccc3)c2-n2cccc2)CC1 = false (0)
CCN(CC)CCn1c2c(c(SCC(=O)Nc3nc4ccccc4s3)nc1=O)CCCC2 = false (0)
C[C@@H](NC(=O)[C@@H]1Cc2ccccc2CN1)C(=O)NC1CCCC1 = false (0)

Incoming: How did this test come out for `c1ccc2sc(NN=C3CCCC3)nc2c1` ?
Outgoing: true (1)

Incoming: Next compound: `O=C(NCCNc1ccc([N+](=O)[O-])cc1Cl)c1ccccc1F`
Outgoing: false (0)

Incoming: Next compound: `Cc1ccc(Cl)cc1-n1ncc2c(N3CCC(C(N)=O)CC3)ncnc21`
Outgoing: false (0)

Incoming: Next compound: `O=C(Nc1ccc(S(=O)(=O)Nc2nccs2)cc1)c1cc(-c2ccncc2)nc2ccccc12`
Outgoing: false (0)

Incoming: Next compound: `C[C@@H]1O[C@@H](OC[C@H]2O[C@@H](Oc3c(-c4ccc(O)cc4)oc4cc(O)cc(O)c4c3=O)[C@H](O)[C@@H](O)[C@@H]2O)[C@H](O)[C@H](O)[C@H]1O`
Outgoing: false (0)

Incoming: Next compound: COC(=O)c1cc(NC2c3ccccc3C(=O)N2c2ccc(Cl)cn2)cc(C(=O)OC)c1 (stereo not given)
Outgoing: true (1)

Incoming: Next compound: `CCc1cc2c(N3CCN(c4nnc(CC)s4)CC3)ncnc2s1`
Outgoing: false (0)
